Test system: NCI-H292
protocol details: Antiproliferative activity against human NCI-H292 cells by MTT assay
Assay type: functional, cell-based
readout label: pIC50
// scale note: pIC50 = -log10(conc_M); give the bare number

Examples with their reported pIC50 follow.
C=C1CC[C@@H]2[C@](C)(CCC[C@]2(C)C(=O)O)[C@H]1CC/C(C)=C/C(=O)O ... 4.69
CCC(C)C1NC(=O)C(NC(=O)/C=C/c2ccccc2)C(C(C)C)Oc2ccc(cc2)/C=C/NC1=O (stereo not drawn) ... 4.75

query: Find the recorded pIC50 belonging to CC1(C)CCC[C@]2(C)[C@H]3C[C@H]4C(CO)=CCO[C@@H]4[C@H]3C[C@H](O)[C@@H]12 and report it.
result: 4.72
